target: T1, VEGFR-2-Fc (UniProt P35968 20-322); experiment: receptor-Fc IP
T1 construct: domain: first 3 Ig domains; conditioned supernatant of 293T cells; also called VEGFR-2-Fc fusion protein; not shown: Fc fragment of the pIg vector
T1 sequence (P35968 20-322): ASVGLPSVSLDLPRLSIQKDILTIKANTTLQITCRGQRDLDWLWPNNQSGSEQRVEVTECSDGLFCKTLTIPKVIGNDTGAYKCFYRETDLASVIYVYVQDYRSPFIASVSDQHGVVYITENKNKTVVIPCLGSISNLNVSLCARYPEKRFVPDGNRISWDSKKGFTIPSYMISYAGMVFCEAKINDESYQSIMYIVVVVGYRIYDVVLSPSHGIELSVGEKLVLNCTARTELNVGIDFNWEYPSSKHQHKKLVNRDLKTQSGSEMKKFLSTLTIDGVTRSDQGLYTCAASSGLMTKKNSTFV
Endpoint label: binding result

1. 12-7 (ligand, also called super-VEGF) GQNHHEVVKFMDVYQRSYCHPIETLVDIFQEFGVATNTFFKPPCVSVYRCGGCCNSEGLQCVPTEESNITMQIMRIKPHQGQHIGEMSFANHTSCRCMSKLDLVFEQKLISEEDLNSAVDHHHHHH	binds
2. 81-5 (ligand) AHYNTEILKFMDVYQRSYCHPIETLVDIFQEYPDEIEYIFKPSCVPLMRCGGCCNDEGLECVPTEESNITMQIMRIKPHQGQHIGEMSFANHTSCRCMSKLD	binds
3. 51-11 (ligand) AHYNTEILKSIDNEWRKTQCMPIETLVDIFQEYPDEIEYIFKPSCVPLMRCGGCCNSEGLQCVPTEESNITMQIMRITVPLSQGPKPVTISFLQHNKCECRPKKD	no binding
4. 73-11 (ligand) GQNHHEVVKSIDNEWRKTQCMPREVCIDVGKEYPDEIEYIFKPPCVSVYRCGGCCNSEGLQCVPTEESNITMQIMRITVPLSQGPKPVTISFLQHNKCECRPKKD	no binding
5. 51-15 (ligand) AHYNTEILKSIDNEWRKTQCMPIETLVDIFQEYPDEIEYIFKPSCVPLMRCGGCCNSEGLQCVPTEESNITMQIMRITVPLSQGPKPVTISFANHTSCRCMSKLD	no binding

Prompt line: # binding result lookup, item 13-11 (ligand) GQNHHEVVKFMDVYQRSYCHPIETLVDIFQEYPDEIEYIFKPPCVSVYRCGGCCNSEGLQCVPTEESNITMQIMRITVPLSQGPKPVTISFLQHNKCECRPKKD
Response line: no binding

Prompt line: # binding result lookup, item 72-9 (ligand) GQNHHEVVKSIDNEWRKTQCMPREVCIDVGKEFGVATNTFFKPPCVSVYRCGGCCNDEGLECVPTEESNITMQIMRITVPLSQGPKPVTISFLQHNKCECRPKKD
Response line: no binding

Prompt line: # binding result lookup, item 71-10 (ligand) GQNHHEVVKSIDNEWRKTQCMPREVCIDVGKEYPDEIEYIFKPSCVPLMRCGGCCNDEGLECMNTSTSYLSKTLFEITVPLSQGPKPVTISFLQHNKCECRPKKD
Response line: no binding
